Assay: Half life in human liver microsomes
Type: ADME, Microsome
OBSERVABLE: half-life (min)

COMPOUND_STRING | OBSERVABLE | MEASURED
CC(=O)c1c(F)c(C(=O)NOC[C@@H](O)CO)c(Nc2ccc(I)cc2F)n1C | half-life | 115
CC(=O)c1cc(C(=O)NOCCO)c(Nc2ccc(I)cc2F)n1C | half-life | 36
CC(=O)c1c(F)c(C(=O)NOC[C@H](O)CO)c(Nc2ccc(I)cc2F)n1C | half-life | 107
CC(=O)c1cc(C(=O)NOC[C@@H](O)CO)c(Nc2ccc(I)cc2F)n1C | half-life | 150
CC(=O)c1cc(C(=O)NCCCO)c(Nc2ccc(I)cc2F)n1C | half-life | 95

1 = CC(=O)c1cc(C(=O)N2CC(O)C2)c(Nc2ccc(I)cc2F)n1C
2 = CC(=O)c1c(Cl)c(C(=O)NOCCO)c(Nc2ccc(I)cc2F)n1C
// query 1 or 2 : whose half-life is greater? State the label of the item chosen.
// result 1
(1: 15 min, 2: 7 min)
